The origin of these recorded values is ChEMBL document CHEMBL5653622.

assay: Cmax in BALB/C mouse plasma at 10 mg/kg, iv by LC/MS-MS analysis; assay type: ADME, organism-based
measurement_type: Cmax

N#Cc1cnc(Nc2cc(NC[C@H]3CNCCO3)c(C(F)(F)F)cn2)cn1 = 4 µM

* * *

assay: Cmax in BALB/C mouse plasma at 10 mg/kg, po by LC/MS-MS analysis; format: ADME, organism-based
measurement_type: Cmax (nM)

N#Cc1cnc(Nc2cc(NC[C@H]3CNCCO3)c(C(F)(F)F)cn2)cn1 = 1620

* * *

assay: Inhibition of human CDK2/Cyclin A by FRET based Z-LYTE kinase assay
measurement_type: IC50

N#Cc1cnc(Nc2cc(NC[C@H]3CNCCO3)c(C(F)(F)F)cn2)cn1 [SRA-737] = 3.85 µM

* * *

assay: AUC (0 to t) in BALB/C mouse spleen at 10 mg/kg, iv by LC/MS-MS analysis; type: ADME, organism-based
measurement_type: AUC(0-t) (µM·h)

N#Cc1cnc(Nc2cc(NC[C@H]3CNCCO3)c(C(F)(F)F)cn2)cn1 = 262

* * *

target: Mitogen-activated protein kinase 15 (Homo sapiens, UniProt Q8TD08); experiment: Inhibition of human ERK8 in presence of ATP by radiometric kinase assay
Sequence (Q8TD08 whole entry): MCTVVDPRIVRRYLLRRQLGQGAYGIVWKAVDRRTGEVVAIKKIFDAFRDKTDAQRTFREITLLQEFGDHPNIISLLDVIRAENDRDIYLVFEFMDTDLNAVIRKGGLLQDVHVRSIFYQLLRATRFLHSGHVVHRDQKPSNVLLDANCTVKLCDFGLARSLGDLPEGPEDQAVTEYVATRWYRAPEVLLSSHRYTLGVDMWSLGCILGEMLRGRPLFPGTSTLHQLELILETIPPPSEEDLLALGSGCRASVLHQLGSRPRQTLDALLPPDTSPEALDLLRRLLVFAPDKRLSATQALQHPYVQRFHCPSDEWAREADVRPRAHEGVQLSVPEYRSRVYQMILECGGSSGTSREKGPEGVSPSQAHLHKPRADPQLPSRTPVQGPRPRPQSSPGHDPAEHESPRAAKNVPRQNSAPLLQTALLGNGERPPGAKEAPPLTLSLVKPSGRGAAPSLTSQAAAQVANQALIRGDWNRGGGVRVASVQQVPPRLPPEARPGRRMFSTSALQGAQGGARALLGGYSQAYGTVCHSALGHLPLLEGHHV
pIC50: −log10 of the molar value.
measurement_type: pIC50

N#Cc1cnc(Nc2cc(NC[C@H]3CNCCO3)c(C(F)(F)F)cn2)cn1 = 6.89

* * *

test: Clearance in BALB/C mouse plasma at 10 mg/kg, po by LC/MS-MS analysis; assay type: ADME, organism-based
measurement_type: CL/F (mL/min/kg)

N#Cc1cnc(Nc2cc(NC[C@H]3CNCCO3)c(C(F)(F)F)cn2)cn1 [SRA-737] = 36

* * *

test: AUC (0 to infinity) in BALB/C mouse spleen at 10 mg/kg, po by LC/MS-MS analysis; type: ADME, organism-based
measurement_type: AUC(0-inf)

N#Cc1cnc(Nc2cc(NC[C@H]3CNCCO3)c(C(F)(F)F)cn2)cn1 [SRA-737] = 223 µM·h

* * *

target: Dual specificity protein kinase CLK2 (Homo sapiens, UniProt P49760)
Sequence (P49760 whole entry): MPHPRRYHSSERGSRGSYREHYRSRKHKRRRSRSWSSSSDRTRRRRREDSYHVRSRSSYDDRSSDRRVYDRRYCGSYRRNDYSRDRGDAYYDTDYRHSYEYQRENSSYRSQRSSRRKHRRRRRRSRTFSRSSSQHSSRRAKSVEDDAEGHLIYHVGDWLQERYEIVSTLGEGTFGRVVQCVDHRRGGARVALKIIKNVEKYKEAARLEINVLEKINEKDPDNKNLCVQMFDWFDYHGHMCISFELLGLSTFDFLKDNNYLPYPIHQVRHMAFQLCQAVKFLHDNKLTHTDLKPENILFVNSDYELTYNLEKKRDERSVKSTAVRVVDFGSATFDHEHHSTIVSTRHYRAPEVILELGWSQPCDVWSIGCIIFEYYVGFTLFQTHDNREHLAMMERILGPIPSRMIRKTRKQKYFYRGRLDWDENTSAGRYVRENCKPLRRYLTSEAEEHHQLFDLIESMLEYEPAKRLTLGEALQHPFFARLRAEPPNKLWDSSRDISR
measurement_type: IC50 (nM)

N#Cc1cnc(Nc2cc(NC[C@H]3CNCCO3)c(C(F)(F)F)cn2)cn1 [SRA-737] = 1370

* * *

assay: AUC (0 to infinity) in BALB/C mouse spleen at 10 mg/kg, iv by LC/MS-MS analysis; assay type: ADME, organism-based
measurement_type: AUC(0-inf) (µM·h)

N#Cc1cnc(Nc2cc(NC[C@H]3CNCCO3)c(C(F)(F)F)cn2)cn1 [SRA-737] = 262

* * *

target: Ribosomal protein S6 kinase alpha-1 (Homo sapiens, UniProt Q15418)
Sequence (Q15418 whole entry): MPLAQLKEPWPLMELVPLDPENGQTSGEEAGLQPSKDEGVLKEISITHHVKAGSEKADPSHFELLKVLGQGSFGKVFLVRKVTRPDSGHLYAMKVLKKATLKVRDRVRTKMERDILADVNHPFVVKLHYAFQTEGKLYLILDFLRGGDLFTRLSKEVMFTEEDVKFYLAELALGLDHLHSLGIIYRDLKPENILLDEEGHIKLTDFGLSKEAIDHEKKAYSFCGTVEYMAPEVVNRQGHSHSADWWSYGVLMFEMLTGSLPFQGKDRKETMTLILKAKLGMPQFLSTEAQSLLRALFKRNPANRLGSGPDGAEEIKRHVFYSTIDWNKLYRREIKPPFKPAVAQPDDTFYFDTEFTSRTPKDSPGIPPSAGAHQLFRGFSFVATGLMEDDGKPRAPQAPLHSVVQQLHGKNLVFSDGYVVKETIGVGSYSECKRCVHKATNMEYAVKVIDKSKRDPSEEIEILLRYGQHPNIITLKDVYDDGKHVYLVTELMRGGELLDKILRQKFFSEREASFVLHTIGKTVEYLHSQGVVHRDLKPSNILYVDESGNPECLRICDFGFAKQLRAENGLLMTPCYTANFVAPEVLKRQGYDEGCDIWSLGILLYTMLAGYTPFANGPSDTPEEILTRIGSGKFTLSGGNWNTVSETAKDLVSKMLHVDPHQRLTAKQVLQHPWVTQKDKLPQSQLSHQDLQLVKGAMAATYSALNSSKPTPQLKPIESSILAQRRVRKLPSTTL
pIC50: −log10 of the molar value.
measurement_type: pIC50

N#Cc1cnc(Nc2cc(NC[C@H]3CNCCO3)c(C(F)(F)F)cn2)cn1 = 6.44

* * *

target: Serine/threonine-protein kinase BRSK1 (Homo sapiens, UniProt Q8TDC3)
Sequence (Q8TDC3 whole entry): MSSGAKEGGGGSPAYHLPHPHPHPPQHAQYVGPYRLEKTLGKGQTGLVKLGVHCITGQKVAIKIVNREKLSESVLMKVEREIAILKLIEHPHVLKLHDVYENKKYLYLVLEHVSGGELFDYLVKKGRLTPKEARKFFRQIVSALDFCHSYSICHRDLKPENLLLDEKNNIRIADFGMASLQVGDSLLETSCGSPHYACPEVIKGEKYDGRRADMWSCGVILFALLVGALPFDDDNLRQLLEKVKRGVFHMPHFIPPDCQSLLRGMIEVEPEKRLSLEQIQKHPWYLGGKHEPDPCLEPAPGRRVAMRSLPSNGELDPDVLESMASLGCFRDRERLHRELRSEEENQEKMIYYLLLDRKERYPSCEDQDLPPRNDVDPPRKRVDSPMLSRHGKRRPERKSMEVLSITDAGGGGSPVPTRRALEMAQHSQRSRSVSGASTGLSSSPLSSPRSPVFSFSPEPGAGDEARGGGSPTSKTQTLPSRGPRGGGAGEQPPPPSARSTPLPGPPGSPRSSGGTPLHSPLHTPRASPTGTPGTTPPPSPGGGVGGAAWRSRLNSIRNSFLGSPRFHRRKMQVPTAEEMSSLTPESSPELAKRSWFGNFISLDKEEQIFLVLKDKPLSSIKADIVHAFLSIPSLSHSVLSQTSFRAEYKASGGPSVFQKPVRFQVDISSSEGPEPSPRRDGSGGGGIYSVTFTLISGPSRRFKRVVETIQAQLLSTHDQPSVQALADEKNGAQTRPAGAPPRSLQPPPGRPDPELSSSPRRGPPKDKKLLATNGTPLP
pIC50: −log10 of the molar value.
measurement_type: pIC50

N#Cc1cnc(Nc2cc(NC[C@H]3CNCCO3)c(C(F)(F)F)cn2)cn1 = 5.78

* * *

assay: Cmax in BALB/C mouse spleen at 10 mg/kg, iv by LC/MS-MS analysis; format: ADME, organism-based
measurement_type: Cmax (µM)

N#Cc1cnc(Nc2cc(NC[C@H]3CNCCO3)c(C(F)(F)F)cn2)cn1 = 44.7
